molecular target: human LRRK2 kinase (Homo sapiens, UniProt Q5S007); conditions: LRRK2, ADP-Glo, ATP 10 μM, 60 minutes at 25° C.
Sequence (Q5S007 whole entry): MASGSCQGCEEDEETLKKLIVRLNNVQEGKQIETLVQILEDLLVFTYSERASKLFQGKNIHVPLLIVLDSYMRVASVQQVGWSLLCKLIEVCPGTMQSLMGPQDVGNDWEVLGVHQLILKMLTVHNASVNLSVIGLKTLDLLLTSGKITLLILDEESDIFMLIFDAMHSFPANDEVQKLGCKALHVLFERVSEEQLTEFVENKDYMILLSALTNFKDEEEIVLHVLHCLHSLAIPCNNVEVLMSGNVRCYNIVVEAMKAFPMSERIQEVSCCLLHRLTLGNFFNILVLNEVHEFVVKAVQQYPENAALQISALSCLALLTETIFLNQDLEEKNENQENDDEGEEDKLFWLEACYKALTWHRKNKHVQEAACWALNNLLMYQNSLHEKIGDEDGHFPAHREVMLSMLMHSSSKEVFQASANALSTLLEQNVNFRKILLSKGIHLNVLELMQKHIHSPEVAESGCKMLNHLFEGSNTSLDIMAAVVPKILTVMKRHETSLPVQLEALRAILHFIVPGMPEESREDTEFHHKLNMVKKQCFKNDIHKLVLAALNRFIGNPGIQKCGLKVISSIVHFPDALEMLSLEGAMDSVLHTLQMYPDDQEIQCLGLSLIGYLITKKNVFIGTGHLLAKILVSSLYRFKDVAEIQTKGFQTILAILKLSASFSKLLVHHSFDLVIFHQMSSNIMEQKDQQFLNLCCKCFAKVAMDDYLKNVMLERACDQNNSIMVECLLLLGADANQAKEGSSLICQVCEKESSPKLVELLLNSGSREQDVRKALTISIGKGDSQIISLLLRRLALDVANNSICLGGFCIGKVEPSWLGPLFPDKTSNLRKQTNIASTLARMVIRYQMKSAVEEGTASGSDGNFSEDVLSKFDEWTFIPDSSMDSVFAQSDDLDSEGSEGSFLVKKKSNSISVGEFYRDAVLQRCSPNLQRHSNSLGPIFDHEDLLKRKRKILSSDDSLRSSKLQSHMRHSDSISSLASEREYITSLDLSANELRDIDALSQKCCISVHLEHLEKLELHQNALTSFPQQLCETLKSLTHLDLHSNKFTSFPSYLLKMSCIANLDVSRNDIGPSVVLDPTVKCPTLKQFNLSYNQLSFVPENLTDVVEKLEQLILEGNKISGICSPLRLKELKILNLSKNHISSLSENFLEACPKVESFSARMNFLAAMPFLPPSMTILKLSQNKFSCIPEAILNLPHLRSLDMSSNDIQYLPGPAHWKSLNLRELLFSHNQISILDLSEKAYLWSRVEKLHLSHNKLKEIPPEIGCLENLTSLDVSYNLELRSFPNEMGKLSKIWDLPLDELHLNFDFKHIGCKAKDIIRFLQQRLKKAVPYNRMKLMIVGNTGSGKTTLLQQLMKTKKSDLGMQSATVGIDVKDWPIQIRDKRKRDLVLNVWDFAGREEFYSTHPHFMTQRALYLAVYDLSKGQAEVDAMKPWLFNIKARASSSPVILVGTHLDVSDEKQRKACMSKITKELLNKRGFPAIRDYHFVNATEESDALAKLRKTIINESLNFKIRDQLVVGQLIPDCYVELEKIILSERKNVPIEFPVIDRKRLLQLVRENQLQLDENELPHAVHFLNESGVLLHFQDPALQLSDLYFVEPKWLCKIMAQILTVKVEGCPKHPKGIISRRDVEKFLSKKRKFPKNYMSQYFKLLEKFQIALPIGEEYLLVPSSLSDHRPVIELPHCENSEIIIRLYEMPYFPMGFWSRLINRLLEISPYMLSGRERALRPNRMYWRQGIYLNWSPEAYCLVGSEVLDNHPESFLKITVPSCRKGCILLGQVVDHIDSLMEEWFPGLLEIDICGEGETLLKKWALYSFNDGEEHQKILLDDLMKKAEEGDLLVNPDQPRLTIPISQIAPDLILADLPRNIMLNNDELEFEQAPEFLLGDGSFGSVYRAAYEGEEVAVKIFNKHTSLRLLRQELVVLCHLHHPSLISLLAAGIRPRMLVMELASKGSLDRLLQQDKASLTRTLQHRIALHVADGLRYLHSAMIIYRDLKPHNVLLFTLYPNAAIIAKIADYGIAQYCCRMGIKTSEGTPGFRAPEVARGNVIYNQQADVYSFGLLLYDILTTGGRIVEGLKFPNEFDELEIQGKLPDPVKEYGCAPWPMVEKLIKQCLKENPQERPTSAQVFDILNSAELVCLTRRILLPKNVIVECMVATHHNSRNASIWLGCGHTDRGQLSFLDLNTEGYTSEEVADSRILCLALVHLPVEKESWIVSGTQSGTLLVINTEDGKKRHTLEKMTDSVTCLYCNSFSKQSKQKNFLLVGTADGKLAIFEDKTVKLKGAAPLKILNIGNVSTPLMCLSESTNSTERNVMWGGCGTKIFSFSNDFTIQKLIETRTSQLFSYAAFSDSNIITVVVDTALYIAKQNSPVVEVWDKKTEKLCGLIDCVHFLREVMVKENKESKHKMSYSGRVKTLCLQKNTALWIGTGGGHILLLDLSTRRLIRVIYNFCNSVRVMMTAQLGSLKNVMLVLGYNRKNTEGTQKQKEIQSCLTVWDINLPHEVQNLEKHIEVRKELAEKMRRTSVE
Reported IC50 values are given for each entry in this list.

// known answers, use as guide
| molecule-smiles | IC50 |
| --- | --- |
| COc1cc(S(C)(=O)=O)ccc1Nc1nc(NC2CCCCC2)c2c(Cl)c[nH]c2n1 | 100 to 1000 nM |
| COCCNc1nc(Nc2ccc(S(=O)(=O)N3CCOCC3)cc2OC)nc2[nH]cc(Cl)c12 | < 10 nM |
| O=C(c1ccc(Nc2nc(NCC3CCCC3)c3c(Cl)c[nH]c3n2)c2c1OCCO2)N1CCOCC1 | 100 to 1000 nM |
| COCCNc1nc(Nc2ccc(C(=O)N3CCOCC3)c3c2OCCO3)nc2[nH]cc(Cl)c12 | < 10 nM |
| COc1cc(S(C)(=O)=O)ccc1Nc1nc(NC2CCC2)c2c(Cl)c[nH]c2n1 | 10 to 100 nM |

Q: Return reported IC50; argument: `O=C(c1ccc(Nc2nc(NC3CC3)c3c(Cl)c[nH]c3n2)c2c1OCCO2)N1CCC(N2CCOCC2)CC1`
Ans: < 10 nM

Q: Return reported IC50; argument: `CCCCNc1nc(Nc2ccc(S(=O)(=O)N3CCC(N4CCOCC4)CC3)cc2OC)nc2[nH]cc(Cl)c12`
Ans: 10 to 100 nM

Q: Return reported IC50; argument: `O=C(c1ccc(Nc2nc(NC3CCC3)c3c(Cl)c[nH]c3n2)c2c1OCCO2)N1CCOCC1`
Ans: < 10 nM
